Target: T1, LIN7B, Q9HAP6
T1 sequence (Q9HAP6 88-185, limits assumed, looked up): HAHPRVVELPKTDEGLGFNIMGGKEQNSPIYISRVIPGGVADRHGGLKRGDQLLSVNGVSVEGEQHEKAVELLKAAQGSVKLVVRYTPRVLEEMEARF
Assay: holdup assay
Parameters: key: below the threshold = too weak to quantify, mostly under pKd 3.1 to 4
Settings: plain residues with an end cap or a label only (N-terminal biotin on a linker: ado-ado)

binder: NISARRFTLC [FAM167B, Q9BTA0]
pKd: 4.08
--
binder: DYSNLRETDI [ADRA1D, P25100]
pKd: 3.62
--
binder: ELKAEDEVQI [DCHS2, Q6V1P9]
pKd: 3.48
--
binder: RSPVATATSC [DUSP5, Q16690]
pKd: 3.68
--
binder: KEKASTETEC [TRPM1, Q7Z4N2]
pKd: 3.77
